The measured values listed here are drawn from the supplement of paper PMC7125110.

variants and their reported self-cleavage kobs at 2500 uM GlcN6P
B1: glmS ribozyme (parent)
chain: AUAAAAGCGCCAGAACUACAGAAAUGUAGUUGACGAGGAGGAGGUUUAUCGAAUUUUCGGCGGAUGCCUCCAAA

- Variants of: B1
- EXPERIMENT_NOTES: self-cleavage kobs at 2500 uM GlcN6P; higher = faster cleavage; RNA array
- DETAILS: with glucosamine-6-phosphate
Variants at the floor of the assay were thinned out.
OBSERVABLE: self-cleavage kobs at 2500 uM GlcN6P

[[record]]
variant_spec = "G29C U31G"
result = "< 1e-05 s⁻¹"

[[record]]
variant_spec = "A53C C70U"
result = "0.00403 s⁻¹"

[[record]]
variant_spec = "G43A G44C U54G"
result = "< 1e-05 s⁻¹"

[[record]]
variant_spec = "C8U G13C A14C"
result = "< 1e-05 s⁻¹"

[[record]]
variant_spec = "C16U U54C"
result = "0.00606 s⁻¹"

[[record]]
variant_spec = "A33C U56C G63U"
result = "< 1e-05 s⁻¹"

[[record]]
variant_spec = "A14U A33C G59A"
result = "< 1e-05 s⁻¹"

[[record]]
variant_spec = "G7A G29C"
result = "< 1e-05 s⁻¹"

[[record]]
variant_spec = "G44A A48G G51U G59A"
result = "< 1e-05 s⁻¹"

[[record]]
variant_spec = "U47A A53G"
result = "0.0106 s⁻¹"

[[record]]
variant_spec = "A53G U54A"
result = "0.0106 s⁻¹"

[[record]]
variant_spec = "A48C U55A"
result = "0.000276 s⁻¹"

[[record]]
variant_spec = "C10U G37C A42C"
result = "< 1e-05 s⁻¹"

[[record]]
variant_spec = "C10U U30C"
result = "< 1e-05 s⁻¹"

[[record]]
variant_spec = "U46A A53G"
result = "0.00104 s⁻¹"

[[record]]
variant_spec = "G35C G40A A42U"
result = "< 1e-05 s⁻¹"

[[record]]
variant_spec = "G29A G66U"
result = "6.95e-05 s⁻¹"

[[record]]
variant_spec = "G9U A39G G44C C67G"
result = "< 1e-05 s⁻¹"

[[record]]
variant_spec = "G9A G35A A48C C50G"
result = "< 1e-05 s⁻¹"

[[record]]
variant_spec = "G32A G41U C50U U56A G62U"
result = "< 1e-05 s⁻¹"

[[record]]
variant_spec = "A42U U45G"
result = "0.000225 s⁻¹"

[[record]]
variant_spec = "A14G G44U U56A"
result = "0.000881 s⁻¹"

[[record]]
variant_spec = "A12G A48C C50U"
result = "< 1e-05 s⁻¹"

